tested on: SEM cells; test: cell viability relative to DMSO control; higher = less cytotoxic; conditions: HPLM + 10% dialyzed FBS; 48 h; 0.0211 µM
Measured cell viability, listed per entry for reference.
Numeric only. Scale: %

Name the recorded cell viability of the compound listed here: Clc1ccc(CCC(Cn2ccnc2)Sc2c(Cl)cccc2Cl)cc1 (centres undefined) 83.5

// Input: NCCOc1cc(C(=O)Nc2cc(OCCN)c3ccccc3n2)nc(C(=O)Nc2cc(OCCN)c3ccccc3n2)c1 . Output its cell viability only. 23.8

Kindly indicate its recorded cell viability. Item: COc1cc(N2CCC(N3CCN(C)CC3)CC2)ccc1Nc1ncc(Cl)c(Nc2ccccc2[S+](=O)([O-])C(C)C)n1 89.1

For the compound COc1cc(C[C@@H](CO)[C@H](CO)Cc2ccc(O)c(OC)c2)ccc1O , give its reported cell viability. 95

----------
tested on: SEM cells; test: cell viability relative to DMSO control; higher = less cytotoxic; conditions: RPMI 5 mM glucose + 10% FBS; 48 h; 0.000781 µM
# cell viability per entry
Just the number in %, nothing appended.

Recorded cell viability, per entry:
Give cell viability for the following compound: COc1ccc(/C=C/C(=O)Nc2ccccc2C(=O)O)cc1OC 109

For the compound NC[C@H](O)c1ccc(O)c(O)c1 , give its measured cell viability value. 84

Output measured cell viability for this item: COc1ccc(-n2c(C)c([N+](=O)[O-])c3ccc(O)cc32)cc1 102

Please supply the value of reported cell viability for the item CC(C)(C)[C@]1(O)C[C@@H]2OC(=O)C[C@@]23C(=O)O[C@@H]2OC(=O)[C@H](O)C213 (some centres undefined) 110

Let me know recorded cell viability for CC(O)(C[S+](=O)([O-])c1ccc(F)cc1)C(=O)Nc1ccc(C#N)c(C(F)(F)F)c1 (centres undefined) , thanks. 84.9

Give the reported cell viability for this compound. COc1cccc(N(C)C(=S)Oc2ccc3c(c2)CCCC3)n1 75

Complete the entry with cell viability for Cc1nnc(C(C)C)n1[C@@H]1C[C@H]2CC[C@@H](C1)N2CC[C@H](NC(=O)C1CCC(F)(F)CC1)c1ccccc1 78.9

Assign cell viability to the following record: O=C(Nc1cccnc1)N1CCC(Cc2cccc(Oc3ccc(C(F)(F)F)cn3)c2)CC1 46.8

Tell me cell viability reported for O=c1oc2cc(O)ccc2s1 91.8

Give me measured cell viability, please, for this compound: C[C@@H]1CC[C@@]2(CC[C@]3(C)\C(=C/C[C@@H]4[C@@]5(C)C[C@@H](O)[C@H](O)[C@@](C)(CO)[C@@H]5CC[C@@]34C)[C@@H]2[C@H]1C)C(O)=O 114

Continuing:
Give cell viability for N#CC1(c2cccc(C(=O)Nc3cc(Oc4ccc5nc(NC(=O)C6CC6)sc5n4)ccc3F)c2Cl)CC1 75.1

Supply measured cell viability of CCOC(=O)c1c(CSc2ccccc2)n(C)c2cc(Br)c(O)c(CN(C)C)c12 in your reply. 107

Supply reported cell viability belonging to this compound: Cc1cccc(-c2[nH]c(C(C)(C)C)nc2-c2ccc3nccnc3c2)n1 95.9

Determine from records and report cell viability for COc1cc(C[C@@H](CO)[C@H](CO)Cc2ccc(O)c(OC)c2)ccc1O 91.8

Quickly give me recorded cell viability for Cn1cnc(N)c2ncnc1-2 90.9

Query cell viability for Cc1cc(/C=c2/sc3nc4ccccc4n3c2=O)c(C)n1-c1ccccc1 117

Return the recorded cell viability value; entry: Nc1cc(N2CCCCC2)nc(N)[n+]1[O-] 100

For the compound CC(C)[C@H](C(=O)Nc1ccc(C(=O)NO)cc1)c1ccccc1 , report cell viability. 115
